Ref: the supplement of paper PMC6555819

Record form. Attribute: PBM binding z-score. Fill in for each entry.
Tested on: VDR homodimer (NR concentration 270 nM)
MEASUREMENT_DESCRIPTION: PBM binding z-score (relative to random genomic background probes); higher = stronger binding; sequences stand for … in GC…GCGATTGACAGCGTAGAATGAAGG

Worked examples follow.
RECORD_SEQUENCE	RESULT
TCTCGGAGGCCACGAAAGGTCAGAGCTCGACATC	0.735
CAGACTGGGGCATAAGGTTACCATAAGCCAGCCC	-0.0112
TCGCGGAGGACACGAAAGGTCAGAGCTCGACATC	0.898
CCGACTGGGGCATAAGGTTACCATGAGCCAGCCC	-0.247
CCTACGGGGCCAAAAAGGTCATTGATGCCGATAA	3.98
CCTCGGAGGACAACAGGAGGTCAGAACTGCCAGA	0.781

Quick request: PBM binding z-score for each listed item, please.
1. CGAACTAGGTCACTGACAGGACAGTGAATAGTAA
2. ACATACAGGTGATGAAGGTAACTCAGGCTATCAT
3. CAAACTAGTTCAAGGTCAAAGTCGGTTTGTGCCA
4. TCGAGTAGGTTCGGGGCATTCAGAATGGCGTCGA
5. AGAATCAGGTTATTAAGATCAGGGAATTGCGGTC

Outgoing:
1. 0.448
2. 0.174
3. 4.9
4. 1.09
5. 0.616

Incoming: Give its PBM binding z-score value. Item: `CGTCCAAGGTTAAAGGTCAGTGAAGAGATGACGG`
Outgoing: 1.46
